Entry source: patent US20190315854A1

Molecular target: T1, sIL-6R (soluble IL-6 receptor; SBH Sciences) (human, UniProt P08887 20-365)
T1 construct: also called human IL-6R
T1 sequence: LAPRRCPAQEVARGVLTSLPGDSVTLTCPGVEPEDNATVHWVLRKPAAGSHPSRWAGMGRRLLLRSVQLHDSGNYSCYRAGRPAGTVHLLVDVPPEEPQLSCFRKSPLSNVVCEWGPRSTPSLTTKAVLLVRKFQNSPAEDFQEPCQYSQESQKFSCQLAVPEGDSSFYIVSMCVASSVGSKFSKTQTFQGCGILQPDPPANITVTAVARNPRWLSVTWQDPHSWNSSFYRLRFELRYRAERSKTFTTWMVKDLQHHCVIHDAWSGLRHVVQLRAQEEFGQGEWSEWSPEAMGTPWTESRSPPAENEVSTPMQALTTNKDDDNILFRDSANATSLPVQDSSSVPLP
Assay: SPR (BIAcore 3000), antibody on chip, sIL-6R analyte, 25 C
value-kind: Relative Affinity

232# (antibody, human IgG1, kappa, V domains shown) VH: QVQLQESGPGLVRPSQTLSLTCTVSGYSITSDHAWSWVRQPPGRGLEWIGYISYSGMITYNPSLKSRVTMLRDTSKNQFSLRLSSVTAADTAVYYCARTLARMTAMDYWGQGSLVTVSS VL: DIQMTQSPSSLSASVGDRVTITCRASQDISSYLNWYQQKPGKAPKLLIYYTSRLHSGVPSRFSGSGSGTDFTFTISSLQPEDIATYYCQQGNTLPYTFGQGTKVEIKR	9.9 fold vs 25 (Tocilizumab)
209# (antibody, human IgG1, kappa, V domains shown, also called Sample # 209) VH: QVQLQESGPGLVRPSQTLSLTCTVSGYSITSDHAWSWVRQPPGRGLEWIGFISYSGMTTYNPSLKSRVTMLRDTSKNQFSLRLSSVTAADTAVYYCARSLARITAIDFWGQGSLVTVSS VL: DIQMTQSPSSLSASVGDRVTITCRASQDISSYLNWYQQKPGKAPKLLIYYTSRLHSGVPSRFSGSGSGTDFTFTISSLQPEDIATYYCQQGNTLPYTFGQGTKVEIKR	4720 fold vs 25 (Tocilizumab)

Consider the binder 240# (antibody, human IgG1, kappa, V domains shown, also called Sample # 240) VH: QVQLQESGPGLVRPSQTLSLTCTVSGYSITSDHAWSWVRQPPGRGLEWIGYISYSGMITYNPSLKSRVTMLRDTSKNQFSLRLSSVTAADTAVYYCARSLARATAMDYWGQGSLVTVSS VL: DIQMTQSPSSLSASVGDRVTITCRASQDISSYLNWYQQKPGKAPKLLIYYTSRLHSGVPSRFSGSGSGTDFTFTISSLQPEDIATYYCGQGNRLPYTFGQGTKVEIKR and give its measured Relative Affinity. 21.1 fold vs 25 (Tocilizumab)

May I ask what Relative Affinity has been recorded for 55# (antibody, human IgG1, kappa, V domains shown, also called Sample # 55) VH: QVQLQESGPGLVRPSQTLSLTCTVSGYSITSDHAWSWVRQPPGRGLEWIGFISYSGMITYNPSLKSRVTMLRDTSKNQFSLRLSSVTAADTAVYYCARCLARTTAMDYWGQGSLVTVSS VL: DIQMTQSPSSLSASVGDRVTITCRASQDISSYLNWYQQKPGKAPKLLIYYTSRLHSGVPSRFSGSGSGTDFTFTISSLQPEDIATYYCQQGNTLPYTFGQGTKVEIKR ? 8.2 fold vs 25 (Tocilizumab)

Query (binder): 227# (antibody, human IgG1, kappa, V domains shown, also called Sample # 227) VH: QVQLQESGPGLVRPSQTLSLTCTVSGYSITSDHAWSWVRQPPGRGLEWIGYISYSGMITYNPSLKSRVTMLRDTSKNQFSLRLSSVTAADTAVYYCARSLARATAMDYWGQGSLVTVSS VL: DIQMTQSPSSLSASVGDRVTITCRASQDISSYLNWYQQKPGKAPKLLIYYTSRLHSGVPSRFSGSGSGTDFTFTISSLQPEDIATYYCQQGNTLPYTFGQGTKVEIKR ; field requested: Relative Affinity 6.6 fold vs 25 (Tocilizumab)
